# assay_system: T1, recombinant human VEGF165 (human, UniProt P15692-4 27-191)
# T1 construct: also called hVEGF165; rhVEGF165
# T1 sequence (P15692 other isoform, or with tags, fused parts or gaps limits assumed): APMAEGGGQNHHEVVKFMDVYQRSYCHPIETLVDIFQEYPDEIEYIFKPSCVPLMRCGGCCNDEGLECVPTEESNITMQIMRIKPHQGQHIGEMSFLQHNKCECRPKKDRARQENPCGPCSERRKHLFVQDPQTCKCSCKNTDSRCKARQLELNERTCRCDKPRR
# measurement_protocol: VEGF/VEGFR1 competition AlphaScreen
Readings of IC50 for the listed binders

binder | IC50 (nM)
VEGFBII025 (VHH, biparatopic bivalent VHH in one chain; also called VEGFBII10E07-40GS-23B04) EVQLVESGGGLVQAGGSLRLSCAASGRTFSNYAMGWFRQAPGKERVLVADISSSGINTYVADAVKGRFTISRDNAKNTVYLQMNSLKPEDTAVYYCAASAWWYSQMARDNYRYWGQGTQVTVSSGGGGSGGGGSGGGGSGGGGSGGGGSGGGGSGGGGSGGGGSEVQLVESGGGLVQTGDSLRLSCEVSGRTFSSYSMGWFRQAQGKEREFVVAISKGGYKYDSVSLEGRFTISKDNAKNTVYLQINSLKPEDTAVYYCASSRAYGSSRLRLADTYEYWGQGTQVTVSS | 0.039
VEGFBII021 (VHH, biparatopic bivalent VHH in one chain; also called VEGFBII23B04-40GS-5B05) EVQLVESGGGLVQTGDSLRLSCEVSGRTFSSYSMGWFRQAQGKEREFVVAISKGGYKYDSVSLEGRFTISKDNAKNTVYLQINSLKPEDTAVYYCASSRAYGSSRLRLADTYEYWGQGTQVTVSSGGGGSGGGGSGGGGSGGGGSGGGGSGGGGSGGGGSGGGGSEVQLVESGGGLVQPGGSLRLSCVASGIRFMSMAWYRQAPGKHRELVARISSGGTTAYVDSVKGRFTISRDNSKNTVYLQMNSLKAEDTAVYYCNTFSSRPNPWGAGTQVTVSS | 0.016
VEGFBII022 (VHH, biparatopic bivalent VHH in one chain; also called VEGFBII23B04-9GS-5B05) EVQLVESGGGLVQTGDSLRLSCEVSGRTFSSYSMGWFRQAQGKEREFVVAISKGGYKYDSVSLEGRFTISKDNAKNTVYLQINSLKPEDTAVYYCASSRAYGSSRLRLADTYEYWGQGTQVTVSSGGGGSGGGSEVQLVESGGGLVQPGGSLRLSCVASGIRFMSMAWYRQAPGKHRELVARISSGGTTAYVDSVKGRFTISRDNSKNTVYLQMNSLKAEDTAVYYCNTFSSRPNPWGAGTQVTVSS | 0.008
